Answer each item with its documented EC50.
TARGET_DESC: TRPML1 (Homo sapiens, UniProt Q9GZU1)
Construct: expressed in transfected cells; host or cells: HEK T-REx cells stably expressing GCaMP6f and TRPML1
Sequence (Q9GZU1 whole entry): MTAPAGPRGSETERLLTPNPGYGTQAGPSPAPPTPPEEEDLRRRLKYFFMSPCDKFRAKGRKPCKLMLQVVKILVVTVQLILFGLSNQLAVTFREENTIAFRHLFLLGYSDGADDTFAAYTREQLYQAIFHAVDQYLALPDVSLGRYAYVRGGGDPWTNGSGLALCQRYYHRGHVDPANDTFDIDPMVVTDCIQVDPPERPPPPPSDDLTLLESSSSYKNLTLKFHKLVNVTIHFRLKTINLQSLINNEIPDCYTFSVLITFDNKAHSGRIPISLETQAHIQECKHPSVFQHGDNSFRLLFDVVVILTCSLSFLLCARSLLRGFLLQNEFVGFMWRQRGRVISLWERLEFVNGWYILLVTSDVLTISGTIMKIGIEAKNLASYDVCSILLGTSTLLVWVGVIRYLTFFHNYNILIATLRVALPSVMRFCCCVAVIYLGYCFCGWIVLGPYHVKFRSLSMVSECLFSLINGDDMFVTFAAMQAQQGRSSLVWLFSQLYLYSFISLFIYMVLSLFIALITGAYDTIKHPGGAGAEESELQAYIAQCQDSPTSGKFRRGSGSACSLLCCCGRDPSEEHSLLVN
METHOD_DESCRIPTION: Cellular TRPML1 assay (FLIPR, GCaMP6f calcium read-out)
Format: cell-based
EXPERIMENTAL_CONTEXT: HEKT-REx/GCaMP6f/TRPML1 cells, FLIPR TETRA, kinetic response over 300 seconds; read-out: TRPML1 FLIPR pEC50 (converted)

The examples below pair each entry with its known result.
- COMPOUND: "O=C(Nc1ccc(N2CCCCC2)c(F)c1)c1nc(N2CCCC2)oc1CC(F)(F)F"
  RESULT: "1000 to 10000 nM"
- COMPOUND: "COC1(C)CN(c2nc(C(=O)Nc3cc(C)c(NC4C5CCCC4CC5)c(F)c3)c(CC(F)(F)F)o2)C1 (stereo not drawn)"
  RESULT: "10 to 1000 nM"
- COMPOUND: "O=C(Nc1ccc(OC2CCC3CC32)c(F)c1)c1nc(N2CCCC2)oc1CC(F)(F)F (stereo not drawn)"
  RESULT: "1000 to 10000 nM"
- COMPOUND: "CC(CC(F)(F)F)Oc1ccc(NC(=O)c2nc(N3CCCC3)oc2CC(F)(F)F)cc1F (stereo not drawn)"
  RESULT: "1000 to 10000 nM"

Could I get EC50 for every one of these entries?
1. CCc1oc(N2CCCC2)nc1C(=O)Nc1cc(C)c(OC2CC3CC(C3)C2)c(F)c1 (stereo not drawn)
2. CCC1(CC)CN(c2nc(C(=O)Nc3ccc(N4CCC5CC5C4)c(F)c3)c(CC(F)(F)F)o2)C1 (stereo not drawn)
3. O=C(Nc1cc(F)c(O[C@@H]2C[C@@H]3C[C@@H]3C2)c(F)c1)c1nc(N2CCC23CCC3)oc1CC(F)(F)F
4. Cc1oc(N2CCC(O)C2)nc1C(=O)Nc1ccc(N2CCCCC2)c(F)c1 (stereo not drawn)
5. O=C(Nc1ccc(OC2CCCC2)c(F)c1)c1nc(N2CC3(C2)CC(F)(F)C3)oc1CC(F)(F)F
6. O=C(Nc1cc(F)c(N2C3CCCC2CC3)c(F)c1)c1nc(N2CCCOCC2)oc1CC(F)(F)F

Result:
10 to 1000 nM
10 to 1000 nM
10 to 1000 nM
10000 to 100000 nM
1000 to 10000 nM
1000 to 10000 nM
